This section presents pIC50 values reported for ROCK2 (Homo sapiens) in the literature.
pIC50: −log10 of the molar value.
measurement kind: pIC50

Worked examples, 2 compounds total:
1. NC(=O)c1cccnc1O[C@H]1C[C@]2(C1)C[C@H](N1C(=O)NC(CCC(F)(F)F)C1=O)C2 (some centres unmarked) = 7.21
2. CC(C)(O)COc1ccc2c(C(=O)N[C@H]3C[C@]4(C3)C[C@H](Oc3[nH]ncc3C(N)=O)C4)cnn2c1C1CC1 (some centres unmarked) = 7.60

I. Cn1cnc(CC2NC(=O)N([C@H]3C[C@@]4(C[C@H](Oc5ncccc5C(N)=O)C4)C3)C2=O)c1 (some centres unmarked)
II. Cc1sc(NC(=O)Cc2ccc(Oc3ncccc3C(N)=O)c(F)c2)nc1-c1cccc(C#N)n1
Query :: When I and II are compared, which has the higher number for pIC50? Please indicate the selected item by its label.
Result :: II

====

This section presents pIC50 values reported for ROCK2 (Homo sapiens, UniProt O75116) in the literature.
pIC50: −log10 of the molar value.
measurement kind: pIC50

Worked examples, 2 compounds total:
1. CC(C)(O)COc1ccc2c(C(=O)N[C@H]3C[C@]4(C3)C[C@H](Oc3nn(C5CC5)cc3C(N)=O)C4)cnn2c1C1CC1 (some centres unmarked) = 8.35
2. COc1cc(C(=O)NCCc2ccc(F)cc2)ccc1-c1cn[nH]c1 = 7.81

I. COc1cc(C(=O)N[C@H](CNS(=O)(=O)C2CC2)c2ccccc2)ccc1-c1cn[nH]c1
II. COc1cc(N2CCC3(CCN(C(=O)c4ccc(N5CCCC5=O)cc4)CC3)C2=O)ccc1-c1cn[nH]c1
Query :: Problem: Given the entries I and II , determine which has the lower reported pIC50. Please indicate the selected item by its label.
Result :: II

====

This section presents pIC50 values reported for ROCK2 (Homo sapiens, UniProt O75116) in the literature.
pIC50: −log10 of the molar value.
measurement kind: pIC50

1. O=C(Nc1cccnc1)c1cc2ccc(-c3nccc(Nc4ccc5[nH]ncc5c4)n3)cc2[nH]1 = 7.20
2. COCc1cnc(-c2ccc3cc(C(=O)N4CC(F)(F)C4)n(C)c3c2)nc1Nc1ccc(-c2cn[nH]c2)cc1 = 7.38

1. Cc1sc(NC(=O)Cc2ccc(Oc3ncccc3C(N)=O)cc2)nc1-c1ccc(F)cc1
2. NC(=O)c1cc2sccc2nc1OC1CC2(CC(NC(=O)C3CC(=O)N(Cc4ccc(Cl)cc4)C3)C2)C1 (single isomer, unassigned)
Query :: Problem: Given the entries 1 and 2 , determine which has the lower reported pIC50. Please indicate the selected item by its label.
Result :: 2
(2: 5.51, 1: 7.02)

I. COc1cc(C(=O)NCc2cc(Cl)ccc2Cl)ccc1-c1cn[nH]c1
II. Cc1csc2cc(C(N)=O)c(O[C@H]3C[C@@]4(C[C@H](NC(=O)c5cnc6ccc(F)cc6c5)C4)C3)nc12 (stereo partly drawn)
Query :: Problem: Given the entries I and II , determine which has the lower reported pIC50. Please indicate the selected item by its label.
Result :: II

====

pIC50: −log10 of the molar value.
This section presents pIC50 values reported for UniProt:O75116 in the literature.

Worked examples, 2 compounds total:
1) COc1cc(F)cc(Cn2c(C)nn(-c3ccc(-c4cn[nH]c4)c(OC)c3)c2=O)c1 = > 8.30
2) O=C(Nc1ccc(-c2n[nH]c(=O)c3ccccc23)cc1)c1csc(-c2ccc(C(F)(F)F)cc2)n1 = 7.41

Query :: // fetch pIC50; item: CC(O)C(=O)N1Cc2ccc(-c3nccc(Nc4ccc(-c5cn[nH]c5)cc4)n3)cc2C1 (stereo not shown) ; system: UniProt:O75116
Result :: 6.41

Query :: // fetch pIC50; item: O=C1OC(C(O)(c2ccccc2)C(F)(F)F)CN1c1ccc(-c2n[nH]c(=O)c3ccccc23)cc1 (stereo not shown) ; system: UniProt:O75116
Result :: 5.70 to 6.30

Query :: // fetch pIC50; item: O=C(NCC1CC1)c1cc(F)cc(CNC(=O)N2CCc3cc(-c4cn[nH]c4)c(F)cc32)c1 ; system: UniProt:O75116
Result :: ≥ 7.30

Query :: // fetch pIC50; item: COc1cccc(C(C)N2CCN(c3ccc(-c4cn[nH]c4)c(OC)n3)C2=O)c1 (single isomer, unassigned) ; system: UniProt:O75116
Result :: > 8.70

Query :: // fetch pIC50; item: O=C(NC1CC2(C1)CC(c1n[nH]c(=O)c3ccccc13)C2)c1cnn2cc(CN3CCCCC3)ccc12 (stereo not shown) ; system: UniProt:O75116
Result :: 7.82 to 8.29

====

pIC50: −log10 of the molar value.
This section presents pIC50 values reported for ROCK2 (Homo sapiens, UniProt O75116) in the literature.
measurement kind: pIC50

1. O=C(NCC1(O)CCCCC1)c1cccc([C@@H](CO)NC(=O)c2ccc(-c3ccncc3)cc2)c1 = 9.15

1. C[C@@H](NC(=O)c1ccc(-c2ccncc2)cc1)c1cccc(C(=O)NC2CC2)c1
2. NC(=O)c1cccnc1O[C@H]1C[C@@]2(C[C@H](Nc3nc(-c4ccccc4F)cs3)C2)C1 (stereo partly shown)
3. COc1ccc(F)c(C(C)NC(=O)c2ccc(-c3c[nH]nc3C)cc2OC)c1 (stereo not shown)
4. COc1cc(N2CCC3(CCN(C(=O)c4cccc5cccnc45)CC3)C2=O)ccc1-c1cn[nH]c1
Query :: Place the items in sequence of falling pIC50. To answer, write out the labels according to the requested order.
Result :: 1, 3, 4, 2
(1: 8.92, 3: 8.29, 4: 6.60, 2: 5.94)

I. O=C(Nc1ccnnc1)c1cc2ccc(-c3nccc(Nc4ccc5[nH]ncc5c4)n3)cc2[nH]1
II. [H][C@]1(Oc2ncccc2C(N)=O)C[C@]2(C[C@@H](Nc3nccc(-c4cccc(F)c4)n3)C2)C1 (stereo partly shown)
III. COc1cc(C(=O)NCc2cccc(C(F)(F)F)c2)ccc1-c1cn[nH]c1
IV. CCOc1cc(-c2cn[nH]c2)ccc1C(=O)N[C@H](C)c1cccc(OC)c1
Query :: Endpoint returns the given compounds ordered by ascending pIC50. To answer, write out the labels according to the requested order.
Result :: II, I, III, IV
(II: 6.83, I: 7.06, III: 7.94, IV: 8.80)

====

This section presents pIC50 values reported for ROCK2 (Homo sapiens, UniProt O75116) in the literature.
pIC50: −log10 of the molar value.

1) NC(=O)c1cccnc1Oc1ccc(CC(=O)Nc2nc3cc(F)ccn3n2)cc1F = 7.14
2) COc1cc(C(=O)NCc2cccc(C(=O)Nc3nc4c(s3)CNCC4)c2)ccc1-c1cn[nH]c1 = 9.64
3) O=C(Cc1cccc2ccccc12)NC1CC2(C1)CC(c1n[nH]c(=O)c3ccccc13)C2 (centres unmarked) = 5.68 to 7.00

# context switch: different molecule, same pIC50
Query :: Report pIC50, nothing else, for this molecule: N#Cc1cccc(Cn2cnn(-c3ccc(-c4cn[nH]c4)cc3)c2=O)c1
Result :: 6.60 to 7.30

====

This section presents IC50 values reported for ROCK2 (Homo sapiens) in the literature.
measurement kind: IC50 (nM)

A. NC(=O)c1cccnc1Oc1ccc(CC(=O)Nc2cn3cc(Br)ccc3n2)cc1Cl
B. O=C(c1cc2ccc(-c3nccc(Nc4ccc(-c5cn[nH]c5)cc4)n3)cc2[nH]1)N1CC2(CNC2)C1
C. CCC(CC)CC1NC(=O)N([C@H]2C[C@@]3(C[C@H](Oc4ncccc4C(N)=O)C3)C2)C1=O (single isomer, unassigned)
D. [2H]C([2H])([2H])n1ccc(-c2ccc3sc(NC(=O)Cc4ccc(Oc5ncccc5C(N)=O)c(F)c4)nc3c2)n1
Query :: Descending by IC50 please, for everything listed above. To answer, write out the labels according to the requested order.
Result :: B, C, A, D

====

This section presents IC50 values reported for ROCK2 (Homo sapiens) in the literature.

1) O=c1n(Cc2cccnc2)ccn1-c1ccc(-c2cn[nH]c2)cc1 = 20.1 to 200 nM

Query :: Report IC50, nothing else, for this compound: N#CC1CCN(C(=O)c2cc3ccc(-c4nccc(Nc5ccc(-c6cn[nH]c6)cc5)n4)cc3[nH]2)CC1
Result :: 64 nM

Query :: Report IC50, nothing else, for this compound: O=C(Nc1cn[nH]c1)c1cc2ccc(-c3nccc(Nc4ccc5[nH]ncc5c4)n3)cc2[nH]1
Result :: 30 nM

Query :: Report IC50, nothing else, for this compound: NC[C@@H](C(=O)Nc1cc2ccncc2s1)c1ccc(COC(=O)NCCO[N+](=O)[O-])cc1
Result :: 0.45 nM

Query :: Report IC50, nothing else, for this compound: O=C(Nc1cccc(-c2noc(Nc3ccc4[nH]ncc4c3)n2)c1)c1cccnc1
Result :: < 300 nM

====

This section presents IC50 values reported for ROCK2 (Homo sapiens) in the literature.
measurement kind: IC50 (nM)

Worked examples, 4 molecules total:
1. C[C@@H](NC(=O)c1cc(F)c(-c2cn[nH]c2)cc1OCCN(C)C)c1ccccc1 = 675
2. O=C(Cc1cccc(F)c1)Nc1ccc2c(c1)[nH]c1cnccc12 = 21
3. CCC(CC)C1NC(=O)N([C@H]2C[C@@]3(C[C@H](Oc4ncccc4C(N)=O)C3)C2)C1=O (stereo partly drawn) = 155
4. COc1cc(C(=O)NC[C@@H](O)c2ccccc2)ccc1-c1cn[nH]c1 = 41.6

P. COc1ccc2c(c1)CCc1sc(NC(=O)Cc3ccc(Oc4ncccc4C(N)=O)c(F)c3)nc1-2
Q. CN(C)Cc1cccc(NC(=O)c2cccc([C@@H](CO)NC(=O)c3ccc(-c4ccncc4)cc3)c2)c1
R. O=C(NC1CCN(c2ccncc2Cl)CC1)c1cc2ccc(-c3nccc(Nc4ccc(-c5cn[nH]c5)cc4)n3)cc2s1
Query :: Endpoint returns the given molecules ordered by ascending IC50. To answer, write out the labels according to the requested order.
Result :: Q, P, R
(Q: 1.6 nM, P: 10 nM, R: 26 nM)
